Origin of values: ChEMBL document CHEMBL4368895

# Test system: Plasmodium falciparum
# assay info: Antiplasmodium activity against chloroquine-sensitive Plasmodium falciparum NF54 asexual blood stage forms infected in human erythrocytes assessed as reduction in [3H]-hypoxanthine incorporation incubated for 48 hrs by liquid scintillation counting method
# Type: functional, organism-based
Listed here: items and their measured IC50.
Report the figure in nM without appending any unit label.

Look over these answered cases.
molecule	target system	unit info	IC50
CCN(CCNc1nc2ccccc2[nH]1)Cc1cc(OC)ccc1O	Plasmodium falciparum	nM	320
CCN(CCNc1nc2ccccc2[nH]1)Cc1cccc(Cl)c1O	Plasmodium falciparum	nM	521
CCN(CCNc1nc2ccccc2[nH]1)Cc1cc(Cl)cc(Cl)c1O	Plasmodium falciparum	nM	400
CCN(CCNc1nc2ccccc2[nH]1)Cc1ccccc1	Plasmodium falciparum	nM	3600
CCN(CCNc1nc2ccccc2[nH]1)Cc1cc(C)ccc1O	Plasmodium falciparum	nM	408

Q: Item CCN(CCNc1nc2ccccc2[nH]1)Cc1cc(C#N)ccc1O has what recorded IC50?
Result: 968

Q: # iterate: CCN(CCNc1nc2ccccc2[nH]1)Cc1cccc(F)c1O
Result: 299

Q: Also check CCN(CCNc1nc2ccccc2[nH]1)Cc1cc(Cl)ccc1O
Result: 110

Q: Item: C[C@H]1[C@H](OC(=O)CCC(=O)O)O[C@@H]2O[C@@]3(C)CC[C@H]4[C@H](C)CC[C@@H]1[C@@]24OO3 [ARTESUNATE]
Result: 7

Q: CCN(CCNc1nc2ccccc2[nH]1)Cc1cc(F)cc(F)c1O , same question.
Result: 222

Q: Now consider CCN(CCNc1nc2ccccc2[nH]1)Cc1ccccc1O .
Result: 474

Q: Ok, now CCN(CCNc1nc2ccccc2[nH]1)Cc1ccc(Cl)cc1O
Result: 79

###

Entries and their selectivity ratio values follow.
# assay info: Selectivity index, ratio of IC50 for cytotoxicity in CHO cells to IC50 for antiplasmodium activity against chloroquine-sensitive Plasmodium falciparum NF54 asexual blood stage forms infected in human erythrocytes
# Type: toxicity, cell-based
# settings: Chinese hamster, read-out: Ratio IC50
// return just the number, without any unit appended

Q: Can you share its selectivity ratio? I mean this molecule: CCN(CCNc1nc2ccccc2[nH]1)Cc1cc(C#N)ccc1O
Result: 52

###

# assay info: Kinetic solubility in pH 7.4 PBS at 0.125 to 8 mM incubated for 2 hrs by turbidimetric kinetic solubility assay
# Assay type: physicochemical
# settings: read-out: Kinetic_solubility
The molecules listed here are annotated with their solubility kinetic at 2 h.
Give the value, in units of µM, as a plain number.

structure	quantitative readout
CCN(CCNc1nc2ccccc2[nH]1)Cc1cc(OC)ccc1O	160

Q: Please report the recorded solubility kinetic at 2 h for CCN(CCNc1nc2ccccc2[nH]1)Cc1cccc(Cl)c1O .
Result: 160

Q: Thanks! And CCN(CCNc1nc2ccccc2[nH]1)Cc1cc(Cl)cc(Cl)c1O ?
Result: 160

Q: How about CCN(CCNc1nc2ccccc2[nH]1)Cc1cc(F)cc(F)c1O ?
Result: 140

Q: Repeat with CCN(CCNc1nc2ccccc2[nH]1)Cc1cc(C#N)ccc1O
Result: 160

Q: Moving on to CCN(CCNc1nc2ccccc2[nH]1)Cc1cccc(F)c1O
Result: 160

Q: What would you report for CCN(CCNc1nc2ccccc2[nH]1)Cc1ccccc1 ?
Result: 140

Q: Follow-up entry: CCN(CCNc1nc2ccccc2[nH]1)Cc1cc(Cl)ccc1O
Result: 160

Q: Another: CCN(CCNc1nc2ccccc2[nH]1)Cc1ccc(Cl)cc1O
Result: 160

###

# assay info: Selectivity index, ratio of IC50 for cytotoxicity in CHO cells to IC50 for antiplasmodium activity against chloroquine-sensitive Plasmodium falciparum NF54 asexual blood stage forms infected in human erythrocytes
# Format: toxicity, cell-based
# settings: Chinese hamster, read-out: Ratio IC50
Would you please tag the item t when its selectivity ratio is 100 or above, and f when it is below?

structure	cat
CCN(CCNc1nc2ccccc2[nH]1)Cc1cc(OC)ccc1O	t
CCN(CCNc1nc2ccccc2[nH]1)Cc1cc(Cl)ccc1O	t
CCN(CCNc1nc2ccccc2[nH]1)Cc1ccc(Cl)cc1O	t

Q: Identify whether the reported selectivity ratio of the following compound is 100 or greater: CCN(CCNc1nc2ccccc2[nH]1)Cc1cc(C)ccc1O
Result: f

Q: Next up: CCN(CCNc1nc2ccccc2[nH]1)Cc1ccccc1O
Result: t

Q: Same again, this time with CCN(CCNc1nc2ccccc2[nH]1)Cc1cccc(Cl)c1O
Result: f

Q: Next: CCN(CCNc1nc2ccccc2[nH]1)Cc1cccc(F)c1O
Result: t

Q: Proceed to CCN(CCNc1nc2ccccc2[nH]1)Cc1cc(F)cc(F)c1O
Result: t

Q: Next record, please: CCN(CCNc1nc2ccccc2[nH]1)Cc1cc(Cl)cc(Cl)c1O
Result: t

###

# assay info: Kinetic solubility in pH 7.4 PBS at 0.125 to 8 mM incubated for 2 hrs by turbidimetric kinetic solubility assay
# Assay type: physicochemical
# settings: read-out: Kinetic_solubility
experimental readout: solubility kinetic at 2 h

Sample records with solubility kinetic at 2 h:
structure	solubility kinetic at 2 h
CCN(CCNc1nc2ccccc2[nH]1)Cc1cc(C)ccc1O	> 200 µM
CCN(CCNc1nc2ccccc2[nH]1)Cc1ccccc1O	> 200 µM

Then this molecule:
Q: Fill blank: measured solubility kinetic at 2 h of the molecule CCN(CCNc1nc2ccccc2[nH]1)Cc1cccnc1O is ____.
Result: > 200 µM
